- system-under-test: human insulin receptor (HIR) (human, UniProt P06213)
- assay-explanation: competition
Positions of bridges follow the written chain, without caps; N, C: chain ends. Non-standard residues stand in square brackets, D forms with d. Chains are numbered I, II in the order given. No end group written: not given here.
// returns false (0) unless Kd is strictly below 0.02 nM, in which case true (1)

binder: SLEEEWAQIECEVWGRGCPKGFYGWFRRRRG [S584]
assigned-category: false (0)
--
binder: FHENFYDAFVRQVSKK [S222]
assigned-category: false (0)
--
binder: SLEEEWAQIECEVWGRGCPSESFYDWFERQL [S558]
assigned-category: true (1)
--
binder: S170 (disulfide I:1-II:1; not fully specified; ends not checked) chain 1: CGFHENFYDWFVRQVSKK chain 2: CGFHENFYDWFVRQVSKK
assigned-category: false (0)
--
binder: S563 (cysteine pairing not given here) chain 1: SLEEEWAQIQCEVWG chain 2: R[dN][dC]SESFYDWFERQL
assigned-category: true (1)
--
binder: EGWDFYSYFSGLLASVT [S259]
assigned-category: false (0)

Values from patent US20110124556
